# Tested on: SF-539 CNS
# Procedure Text: NCI tumour cell line growth inhibition, 48 h
Reported Metric: GI50

Compound	GI50
COc1ccc(Nc2ccc([N+](=O)[O-])cc2[N+](=O)[O-])cc1CN(CCCl)CCCl	1850 nM
COc1cc(C(=O)c2cc(C)c3[nH]c4ccc(O)cc4c3c2C)cc(OC)c1OC	< 11.3 nM
CCc1c(C)nc2sc3c(N)ncnc3c2c1C	> 25000 nM
COc1cc2cc(Oc3ccc(NC(=O)c4ccc(Cl)c(Cl)c4)cc3)c(C)nc2cc1OC	> 100000 nM
CC1c2ccccc2CCN1c1ccc(CO)c(Cl)c1 (stereo unspecified)	19100 nM

Pending compound:
Data point: `CN1CCN(CCCCCN=c2cc3c(=O)n(CCCCCN4CCN(C)CC4)c(=O)c4c(NCCCCCN5CCN(C)CC5)cc5c(O)n(CCCCCN6CCN(C)CC6)c(=O)c2c5c4-3)CC1` ; GI50 = 2640 nM
